System: PC-3
Assay: NCI tumour cell line growth inhibition, 48 h
Active and inactive are the calls of the source. Cut-off read from the data, not from the text of the source: active = GI50 up to about 1.1 µM and inactive = higher.
Please reply with one of these outcomes: active, inactive

Ask: What classification did CCOC(=O)P(=O)(O)c1ccc(N(C)Cc2ccccc2)cc1 end up with in this test?
Reply: inactive

Ask: Any idea what this test logged for O=C1NN(c2ccccc2)C(=O)C2C3c4ccccc4C(c4ccccc43)C12 (configuration not stated) ?
Reply: inactive

Ask: For this compound, state the assay outcome: O=C(O)c1ccccc1CC1Cc2ccccc2C1
Reply: inactive

Ask: Recorded test outcome, item CC(C)(C)c1cc(OCc2nn3c(Cc4ccccc4)nnc3s2)c(Cl)cc1OCc1nn2c(Cc3ccccc3)nnc2s1
Reply: inactive

Ask: Each compound tested received a call. Report the one for Cn1c(-c2cccs2)cc(-c2cccs2)c1-c1ccco1 .
Reply: inactive

Ask: Test call, this compound: COc1ccc2nc3cc(Cl)ccc3c(NCCCCCC(=O)NC(COc3cnc4c(ccc5cccnc54)c3)COc3cnc4c(ccc5cccnc54)c3)c2c1
Reply: inactive
